Tested on: MDA-MB-231
Test: NCI tumour cell line growth inhibition, 48 h
The source made the active and inactive calls. Cut-off read from the data, not from the text of the source: active = GI50 up to about 1.1 µM and inactive = higher.
Give GI50 for every item shown.

Q: Which GI50 is reported with MDA-MB-231 for this entry: CC(=O)NNc1nc(C)c(C(/C=C/c2ccccc2O)=N/N=C(N)N)s1 ?
Result: > 100 µM (inactive)

Q: Which GI50 is reported with MDA-MB-231 for this entry: COc1ccc(-c2coc3cc(O)ccc3c2=O)cc1 ?
Result: 11.3 µM (inactive)

Q: Which GI50 is reported with MDA-MB-231 for this entry: CN1CN(c2ccccc2)C2(CCN(CCCSc3ccccc3NC(=O)/C=C/c3ccccc3)CC2)C1=O ?
Result: 1.73 µM (inactive)

Q: Which GI50 is reported with MDA-MB-231 for this entry: O=C1/C(=C/c2ccc(Cl)cc2)CCC1CNc1ccc(Cl)cc1 (stereo unspecified) ?
Result: 6.7 µM (inactive)

Q: Which GI50 is reported with MDA-MB-231 for this entry: N/C(=N\N/C=C1\C=Nc2cc(C(F)(F)F)ccc2C1=O)NO ?
Result: > 10 µM (inactive)

Q: Which GI50 is reported with MDA-MB-231 for this entry: COc1cc(C)cc2c1C(=O)C(Br)=CC2=O ?
Result: 14.7 µM (inactive)

Q: Which GI50 is reported with MDA-MB-231 for this entry: CC[N+](C)(CC)CCN1C(=O)c2ccccc2S1(=O)=O ?
Result: > 100 µM (inactive)

Q: Which GI50 is reported with MDA-MB-231 for this entry: O=C1Nc2ccc(Cl)cc2/C1=C\c1c(Cl)nc2sccn12 ?
Result: 2.56 µM (inactive)

Q: Which GI50 is reported with MDA-MB-231 for this entry: Cc1ccc([C@H]2CC(=O)C[C@H](c3ccc(C)cc3)C23C(=O)c2ccccc2C3=O)cc1 ?
Result: 54.7 µM (inactive)

Q: Which GI50 is reported with MDA-MB-231 for this entry: Cc1c(C(=O)O)sc2nc[nH]c(=O)c12 ?
Result: > 100 µM (inactive)

Q: Which GI50 is reported with MDA-MB-231 for this entry: CC1=C2CN(C(=O)OCC(C)C)CCC2C2=C(C(=O)c3ccccc3C2=O)C1C (stereo unspecified) ?
Result: > 10 µM (inactive)

Q: Which GI50 is reported with MDA-MB-231 for this entry: COC(=O)/C(=N/NC(N)=O)C(C(=O)C(=O)Nc1ccc(C)cc1)c1nc2ccc(C(=O)c3ccccc3)cc2nc1O (stereo unspecified) ?
Result: > 100 µM (inactive)

Q: Which GI50 is reported with MDA-MB-231 for this entry: Cc1ccc(OCC2OC(n3cnc4c(Cl)nc(N)nc43)CC2Oc2ccc(C)cc2)cc1 (stereo unspecified) ?
Result: 22.4 µM (inactive)

Q: Which GI50 is reported with MDA-MB-231 for this entry: Cn1cc2c(=O)n3ncn(-c4ccc(Br)cc4)c3nc2n1 ?
Result: > 100 µM (inactive)

Q: Which GI50 is reported with MDA-MB-231 for this entry: COc1ccc(OCC(=N/NC(=O)c2ccncc2)/N=C/c2cccnc2)cc1 ?
Result: > 100 µM (inactive)

Q: Which GI50 is reported with MDA-MB-231 for this entry: C#CCCOC1(OC)N=NC(C)(C)O1 (stereo unspecified) ?
Result: > 100 µM (inactive)

Q: Which GI50 is reported with MDA-MB-231 for this entry: CNC(=O)C(C)NC(=O)C(Cc1ccccc1)NC(=O)c1ccccc1 (stereo unspecified) ?
Result: > 100 µM (inactive)

Q: Which GI50 is reported with MDA-MB-231 for this entry: CC(=O)N(C(C)=O)n1c(Cc2ccc(Cl)cc2)nn(C(C)=O)c1=O ?
Result: > 100 µM (inactive)

Q: Which GI50 is reported with MDA-MB-231 for this entry: CCOC(=O)C(NC(=O)c1ccccc1)(N1CCN(c2cc3c(cc2F)c(=O)c(C(=O)O)cn3C2CC2)CC1)C(F)(F)F (stereo unspecified) ?
Result: 12.9 µM (inactive)

Q: Which GI50 is reported with MDA-MB-231 for this entry: N#Cc1c2ccc([N+](=O)[O-])cc2c(=O)n2c1sc1ccc(C(F)(F)F)cc12 ?
Result: > 100 µM (inactive)

Q: Which GI50 is reported with MDA-MB-231 for this entry: O=C(O)CSCC(=O)O ?
Result: > 100 µM (inactive)

====

Give GI50 for every item shown.
System: ACHN
Test: NCI tumour cell line growth inhibition, 48 h
Activity calls are given as the source filed them. Cut-off read from the data, not from the text of the source: active = GI50 up to about 1.1 µM and inactive = higher.

Q: Request the reported GI50 associated with O=C(N/C(=C\c1ccc(Cl)cc1)c1nc2ccccc2[nH]1)c1ccccc1
Result: 27.5 µM (inactive)

Q: Request the reported GI50 associated with S=c1nc(N/N=C/c2cccs2)c2cn[nH]c2[nH]1
Result: 26.8 µM (inactive)

Q: Request the reported GI50 associated with CC(C)(CCCCC(C)(C)[N+](C)(C)C)[N+](C)(C)C
Result: > 10 µM (inactive)

Q: Request the reported GI50 associated with COCCOC(=O)NCn1cc(-c2ccccc2)nn1
Result: > 100 µM (inactive)

Q: Request the reported GI50 associated with C[N+](C)(C)CC(=O)N/N=C(/C(=O)Nc1ccc(Br)cc1)C1C(=O)NC(=O)NC1=O
Result: > 100 µM (inactive)

Q: Request the reported GI50 associated with O=C1c2ccccc2C2(c3ccc(Cl)cc3)N[C@@H]3CCCC[C@@H]3N12 (some centres not stated)
Result: > 100 µM (inactive)

Q: Request the reported GI50 associated with COC1=CC(=O)C2(C=C1OC)OC[C@H]1Oc3c(ccc4c3C=CC(C)(C)O4)C(=O)[C@H]12 (some centres not stated)
Result: 44.8 µM (inactive)

Q: Request the reported GI50 associated with C1=N\CCNCCNCC/N=C\c2ccc(cc2)OCc2cccc(n2)COc2ccc/1cc2
Result: > 100 µM (inactive)

Q: Request the reported GI50 associated with CC(=O)NNc1nc(C)c(C(/C=C/c2ccccc2O)=N/N=C(N)N)s1
Result: > 100 µM (inactive)

Q: Request the reported GI50 associated with COc1cccc2c1C1=CC(=O)CCC1C(C)(C)O2 (configuration not stated)
Result: > 100 µM (inactive)

Q: Request the reported GI50 associated with CN(C)/N=N/c1ccccc1
Result: 25.9 µM (inactive)

Q: Request the reported GI50 associated with Cc1ccc(S(=O)(=O)N/N=C2\CCCCCCCCCCC2CN(C)C)cc1 (configuration not stated)
Result: 20.1 µM (inactive)

Q: Request the reported GI50 associated with NC(=O)/N=C1/CCC2C3CCCC2C13
Result: > 100 µM (inactive)

Q: Request the reported GI50 associated with O=C1CSC(c2cccc(Cl)c2)N1c1c(O)c(Cl)cc(Br)c1Cl (configuration not stated)
Result: 14.8 µM (inactive)

Q: Request the reported GI50 associated with Cc1cc([N+](=O)[O-])c(C)c2c1[nH]c1ccc(O)cc12
Result: 99.8 µM (inactive)

Q: Request the reported GI50 associated with CCOC(=O)C(NC(=O)c1ccccc1)(N1CCN(c2cc3c(cc2F)c(=O)c(C(=O)O)cn3C2CC2)CC1)C(F)(F)F (configuration not stated)
Result: 23.9 µM (inactive)

Q: Request the reported GI50 associated with Cc1cccc(/N=C/C=C(\Cl)c2ccc3ccccc3c2)c1
Result: 16.4 µM (inactive)

Q: Request the reported GI50 associated with COc1ccc(-c2cc(=O)c3c(OC)c(OC)c(OC)c(OC)c3o2)cc1OC
Result: 37.3 µM (inactive)

Q: Request the reported GI50 associated with COc1cc2c(cc1O)-c1c(OC)c(O)cc3c1C(C2)N(C)CC3 (configuration not stated)
Result: > 100 µM (inactive)

Q: Request the reported GI50 associated with C[N+](C)(C)CC(=O)NC(=O)N/N=C\C(CC#N)CN(Cc1ccccc1)Cc1ccccc1 (configuration not stated)
Result: > 100 µM (inactive)

Q: Request the reported GI50 associated with COc1ccc(-c2[nH]c(=O)n(C3OC(CO)C(O)C(O)C3O)c(=O)c2C#N)cc1 (configuration not stated)
Result: > 100 µM (inactive)

Q: Request the reported GI50 associated with Cc1cc(=O)oc2c1cc1ccc3cccc4ccc2c1c34
Result: 46.7 µM (inactive)

====

Test system: TK-10
Assay: NCI tumour cell line growth inhibition, 48 h
Active and inactive are the calls of the source. No stated cut-off is given here; in the data, active = GI50 up to about 1.1 µM and inactive = higher.
Choose one outcome from this list and give only that: active, inactive

Q: For CC1(C2(C)OC(=O)c3ccccc32)OC(=O)c2ccccc21 (stereo not given) , which call appears in the assay record?
Result: inactive

Q: For CCCCCCCC(=O)OCC1OC(OC)C(NC(=O)N(CCCl)N=O)C(O)C1O (stereo not given) , which call appears in the assay record?
Result: inactive

Q: For CC(NC(=O)C1(N)CCCC1)C(=O)O (stereo not given) , which call appears in the assay record?
Result: inactive

Q: For CCOC(=O)CCC(NC(=O)c1ccc(OCc2ccc3nc(OC)c(OC)nc3c2)cc1)C(=O)OCC (stereo not given) , which call appears in the assay record?
Result: inactive

Q: For Cc1ccc(C(=O)O/N=C2/CCCC/C2=C\c2ccccc2)cc1 , which call appears in the assay record?
Result: inactive

Q: For O=[N+]([O-])c1cccc2nc3ccccc3c(NCCCCCNc3c4ccccc4nc4cccc([N+](=O)[O-])c34)c12 , which call appears in the assay record?
Result: active

Q: For CCOC(=O)C12CCCC1(O)N(NC(N)=O)C(C)=C2C(=O)OC (stereo not given) , which call appears in the assay record?
Result: inactive

Q: For CC(=O)NNc1nc(C)c(C(/C=C/c2ccccc2O)=N/N=C(N)N)s1 , which call appears in the assay record?
Result: inactive

Q: For CC(C)N1CC2CC(CN(C(=O)c3ccc(Cl)cc3)C2)C1 , which call appears in the assay record?
Result: inactive

Q: For COc1cc2c(cc1C)[n+]([O-])c(C)c(C(=O)C/C(=N/NC(=O)C[N+](C)(C)C)C(=O)Nc1cccc(Cl)c1C)[n+]2[O-] , which call appears in the assay record?
Result: inactive
